Values compiled from PubChem BioAssay (NCI).

System: NCI-H226 lung
Method description: NCI-60 one-dose screen, 48 h
Condition description: 10 µM unless noted
This is part of a sample that, as a whole, favours compounds with a hit. Of some 83,000 tested, about 20% had one in any assay. Calls of active or inactive are those of the source. The calls were made as follows: active = growth percent below 10; inactive = the rest.
Respond only with the outcome that fits, drawn from active, inactive

Any idea what this test logged for C=CC[n+]1ccc(-c2cc[n+](CC=C)cc2)cc1 ?
inactive

Any idea what this test logged for C[C@@H]1O[C@@H](O[C@H]2C[C@@H](O)[C@]3(CO)C4C(CC[C@]3(O)C2)[C@@]2(O)CC[C@H](C3=CC(=O)OC3)[C@@]2(C)C[C@H]4O)[C@H](O)[C@H](O)[C@H]1O (stereo partly drawn) ?
active

Any idea what this test logged for O=C([O][Hg][CH2]C1COCC([CH2][Hg][O]C(=O)c2ccccc2)O1)c1ccccc1 (stereo not drawn) ?
inactive

Any idea what this test logged for CCC(=O)Nc1ccc(Cl)c(Cl)c1 ?
inactive

Any idea what this test logged for O=[N+]([O-])/C=C\c1ccc(Cl)c(Cl)c1 ?
inactive

Any idea what this test logged for COC(=O)[C@H](C[C@H](Cc1ccccc1)NC(=O)c1csc([C@@H](C[C@H](C(C)C)N(C)C(=O)[C@@H](NC(=O)[C@H]2CCCCN2C)C(C)C)OC(C)=O)n1)NC(=O)OCc1ccccc1 ?
active

Any idea what this test logged for CCc1ccccc1[C@@H]1C[C@]2(C)CCO[C@@H]2OO1 ?
inactive

Any idea what this test logged for CC1=C(O)[C@@](C)(CCCCC[C@H](C)CCCCc2ccc(O)cc2)OOC1=O ?
inactive

Any idea what this test logged for CC1(C)C(C(=O)c2cn(CCCCF)c3ccccc23)C1(C)C ?
inactive

Any idea what this test logged for CC(CC1CCCCC1)NCc1ccccc1 (stereo not drawn) ?
inactive

Any idea what this test logged for Nc1cc2nc3ccccc3nc2cc1N ?
inactive

Any idea what this test logged for CC(=O)OC1CCC2C3CCC4=C/C(=N/OC(=O)c5ccc(N(CCCl)CCCl)cc5)CCC4(C)C3CC(C)C12 (stereo not drawn) ?
inactive

Any idea what this test logged for N/C(=N\N=C\c1ccc(-c2ccccc2)cc1)N[N+](=O)[O-] ?
inactive

Any idea what this test logged for Cc1ccc(C(=O)NCCCOc2ccc(N3C(N)=NC(N)=NC3(C)C)cc2Cl)cc1S(=O)(=O)F ?
inactive

Any idea what this test logged for Cc1sc2c(c1C)C(c1ccc(Cl)cc1)=N[C@@H](CC(=O)OC(C)(C)C)c1nnc(C)n1-2 ?
inactive

Any idea what this test logged for C#Cc1ccc2c(c1)C(c1ccccc1F)=NCC(=O)N2C ?
inactive

Any idea what this test logged for O=C([O][Hg][c]1ccccc1)c1ccccc1 ?
inactive

Any idea what this test logged for O=C(CC1(O)C(=O)Nc2ccc(Br)cc21)c1ccc(C(=O)NCC2CCC3(CC2)OOC2(CCCCC2)OO3)cc1 (stereo not drawn) ?
inactive

Any idea what this test logged for Nc1ccc(OCCNS(=O)(=O)c2cccc(S(=O)(=O)F)c2)c(Cl)c1 ?
inactive

Any idea what this test logged for O=[N+]([O-])c1cc(I)cc([N+](=O)[O-])c1 ?
inactive

Any idea what this test logged for CC(C)(C)C(=O)OCOP(=O)(OCOC(=O)C(C)(C)C)C1CCCN(O)C1=O (stereo not drawn) ?
active

Any idea what this test logged for CCC1(C(C)C)C(=O)NC(=S)NC1=O ?
inactive

Any idea what this test logged for CC(=O)O[C@H]1CC[C@]2(C)[C@H]3CC[C@]4(C)[C@@H](OC(C)=O)CC[C@H]4[C@@H]3[C@@H](C)[C@]2(O)C1 ?
inactive

Any idea what this test logged for C[S+]1C=Cc2ccccc2C1c1ccc(Cl)cc1 (stereo not drawn) ?
inactive

Any idea what this test logged for CC12CCC3C(CCC4Cc5[nH]c6ccccc6c5CC43C)C1CCC2O (stereo not drawn) ?
inactive

Any idea what this test logged for Fc1ccc(C2=CCNCC2)cc1 ?
inactive

Any idea what this test logged for CC(C)(NC(=O)O[C@@H]1CN2CCC1CC2)c1csc(-c2ccc(F)cc2)n1 ?
inactive

Any idea what this test logged for O=C(Nc1ccc(Cl)cc1)Nc1nccs1 ?
inactive
